Biological target: Drosophila OR47a (Drosophila melanogaster, UniProt P81921)
Construct: expressed in transfected cells
Sequence (P81921 whole entry): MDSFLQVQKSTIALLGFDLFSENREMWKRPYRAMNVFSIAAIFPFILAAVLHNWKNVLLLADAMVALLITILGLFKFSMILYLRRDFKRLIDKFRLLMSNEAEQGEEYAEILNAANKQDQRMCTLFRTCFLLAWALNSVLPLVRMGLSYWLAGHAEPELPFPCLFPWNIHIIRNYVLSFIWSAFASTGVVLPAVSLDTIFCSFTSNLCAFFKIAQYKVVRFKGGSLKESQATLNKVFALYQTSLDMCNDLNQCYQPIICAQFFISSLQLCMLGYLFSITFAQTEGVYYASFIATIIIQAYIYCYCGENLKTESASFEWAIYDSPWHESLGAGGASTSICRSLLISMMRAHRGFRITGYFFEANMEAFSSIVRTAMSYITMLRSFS
Sequence (Q9VNB5 whole entry partner): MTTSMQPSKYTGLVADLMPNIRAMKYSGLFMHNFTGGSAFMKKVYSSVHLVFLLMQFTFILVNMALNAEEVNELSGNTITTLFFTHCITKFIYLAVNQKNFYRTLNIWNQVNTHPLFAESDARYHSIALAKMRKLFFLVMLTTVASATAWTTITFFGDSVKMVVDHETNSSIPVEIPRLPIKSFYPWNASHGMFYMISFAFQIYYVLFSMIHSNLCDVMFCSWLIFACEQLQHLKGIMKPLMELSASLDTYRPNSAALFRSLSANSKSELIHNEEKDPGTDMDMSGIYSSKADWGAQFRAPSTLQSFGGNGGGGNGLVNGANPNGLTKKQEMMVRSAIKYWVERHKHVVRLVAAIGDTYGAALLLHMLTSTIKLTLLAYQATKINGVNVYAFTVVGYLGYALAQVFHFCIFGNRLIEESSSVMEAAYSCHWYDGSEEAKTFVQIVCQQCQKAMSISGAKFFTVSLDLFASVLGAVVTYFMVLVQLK
Assay: cell-based
Set-up: GCaMP6 calcium fluorescence in stable HEK293 OR+ORCO lines; peak dF normalised to 50 uM VUAA1 (=1)
Conditions: HEK293; relative to 50 uM VUAA1 response; below 0.05 set to 0; read-out: % activation
endpointName: activity at 1 µM (%)
Answers are plain numbers, in %.

C=C(C)[C@H]1CC=C(C)CC1 [(R)-(+)-limonene]: 0
C=C(C)C1CCC2(C)OC2C1 (single isomer, unassigned; (+)) [(+)-limonene oxide]: 0
C=C1CC[C@@]23C[C@@H]1C(C)(C)[C@@H]2CC[C@H]3C [(+)-beta-cedrene]: 0

Please give activity at 1 µM, item by item, for the list that follows.
1. C=C1[C@H]2CC[C@@H]3[C@H]2C(C)(C)CCC[C@]13C [(+)-longifolene]
2. OCCc1ccccc1

// result
1. 0
2. 5.64
